target: MNV P domain (Murine norovirus 1, UniProt Q80J94); construct: C-terminal protruding (P) domain of VP1, expressed as soluble form without the shell domain; dimerizes; experiment: isothermal titration calorimetry
Sequence (Q80J94 229-541): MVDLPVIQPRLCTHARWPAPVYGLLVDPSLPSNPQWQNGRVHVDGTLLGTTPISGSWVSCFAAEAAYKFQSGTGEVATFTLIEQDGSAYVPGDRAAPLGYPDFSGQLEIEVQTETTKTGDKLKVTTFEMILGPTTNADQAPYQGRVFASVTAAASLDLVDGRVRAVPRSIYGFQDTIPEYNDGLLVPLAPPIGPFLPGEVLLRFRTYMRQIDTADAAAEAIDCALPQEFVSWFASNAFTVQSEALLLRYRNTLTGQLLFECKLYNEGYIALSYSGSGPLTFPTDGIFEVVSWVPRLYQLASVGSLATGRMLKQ
pKd: −log10 of the molar value.
readoutKind: pKd

Report pKd for C[C@H](CCC(=O)NCC(=O)O)[C@H]1CC[C@H]2[C@@H]3[C@H](O)C[C@@H]4C[C@H](O)CC[C@]4(C)[C@H]3CC[C@]12C please. ~4.89

This collection of values is drawn from paper PMC13464545.
